FYI, the data here is from BindingDB's records for doi:10.1021/jm020562o.

Test: Binding affinity was determined against Opioid receptor delta 1 from guinea pig brain membranes
quantity: pKi
Remember the convention: pKi equals -log10 of concentration in molar.

Query string: Which measured pKi value corresponds to COCC[C@H]1CC2CN3CCc4c([nH]c5ccccc45)[C@](C(=O)OC)(C2)C13 ?
Result string: 5.46
